Target: Recombinant KAT6A/MOZ (488-778) protein (Homo sapiens (Human))
Sequence (Q92794 488-778): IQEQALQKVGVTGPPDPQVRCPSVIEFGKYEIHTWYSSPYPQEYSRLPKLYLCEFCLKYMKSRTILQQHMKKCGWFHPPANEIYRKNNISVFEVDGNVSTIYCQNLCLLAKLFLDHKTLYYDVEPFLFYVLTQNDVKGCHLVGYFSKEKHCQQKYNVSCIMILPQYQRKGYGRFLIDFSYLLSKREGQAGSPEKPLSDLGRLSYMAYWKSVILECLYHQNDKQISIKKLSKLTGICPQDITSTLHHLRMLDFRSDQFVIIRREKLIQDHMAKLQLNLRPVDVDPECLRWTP
Assay: KAT6A AlphaLISA Inhibition Screening Assay
Type: biochemical
Details: read-out: Average Kat6A % inhibition @ 1 μM; 1 μM test compound
Measured Property: inhibition at 1 µM (%)
The answer is to be given in %; state only the numeric part.

[[record]]
molecule = "C#CC(=O)NCc1cnn(Cc2cc(OC)c3c(NS(=O)(=O)c4cc(CC)ccc4OCCO)noc3c2)c1 [Syn. Ex. 65]"
measured_property = "inhibition at 1 µM"
assay_value = 100

[[record]]
molecule = "C=C(F)C(=O)NCc1cnn(Cc2cc3onc(NS(=O)(=O)c4cc(CC)ccc4OC)c3c3c2CCCO3)c1 [Syn. Ex. 96]"
measured_property = "inhibition at 1 µM"
assay_value = 100

[[record]]
molecule = "COc1cc(Cn2cc(CNS(C)(=O)=O)cn2)cc2onc(NS(=O)(=O)c3ccccc3OCc3ccccc3)c12 [Syn. Ex. 37]"
measured_property = "inhibition at 1 µM"
assay_value = 100

[[record]]
molecule = "C=C(F)C(=O)NCc1cnn(Cc2cc(OC)c3c(NS(=O)(=O)c4cc(CC)ccc4OCc4nc[nH]n4)noc3c2)c1 [Syn. Ex. 80]"
measured_property = "inhibition at 1 µM"
assay_value = 100

[[record]]
molecule = "COc1cc(C)c(Cl)cc1S(=O)(=O)Nc1noc2cc(Cn3cc(CNS(C)(=O)=O)cn3)cc(OC)c12 [Syn. Ex. 22]"
measured_property = "inhibition at 1 µM"
assay_value = 100


Entry CCc1ccc(OCc2ncon2)c(S(=O)(=O)Nc2noc3cc(Cn4cc(CNC(=O)OC)cn4)cc(OC)c23)c1 [Syn. Ex. 74] ; inhibition at 1 µM = 100

Reported inhibition at 1 µM ( CCOC(=O)NCc1cnn(Cc2cc(OC)c3c(NS(=O)(=O)c4cc(CC)ccc4OC)noc3c2)c1 [Syn. Ex. 16] ) = 98
